Biological target: Estrogen receptor beta (Homo sapiens); note: in other assays of this panel Not Active means under 50% inhibition at 10 µM
Sequence (Q92731 whole entry): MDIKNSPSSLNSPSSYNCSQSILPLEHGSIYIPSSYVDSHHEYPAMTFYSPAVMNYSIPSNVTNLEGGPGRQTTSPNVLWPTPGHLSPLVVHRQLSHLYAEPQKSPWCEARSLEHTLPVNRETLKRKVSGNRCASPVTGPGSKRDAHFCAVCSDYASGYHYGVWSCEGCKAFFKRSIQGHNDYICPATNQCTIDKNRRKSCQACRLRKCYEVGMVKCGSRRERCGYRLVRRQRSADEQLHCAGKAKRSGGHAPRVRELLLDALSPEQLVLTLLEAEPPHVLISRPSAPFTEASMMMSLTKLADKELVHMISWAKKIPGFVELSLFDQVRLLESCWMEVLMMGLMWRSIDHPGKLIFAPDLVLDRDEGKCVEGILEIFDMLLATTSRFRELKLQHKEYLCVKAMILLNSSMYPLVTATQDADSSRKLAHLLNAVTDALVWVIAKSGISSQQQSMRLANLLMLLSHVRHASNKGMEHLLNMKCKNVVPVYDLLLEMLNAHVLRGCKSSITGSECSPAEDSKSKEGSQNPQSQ
Conditions: sf9
Parameter: IC50

# get_value(readout='IC50', item= ZIRCONIUM(IV) CHLORIDE ) Not Active

// same read-out, input: COBALTOUS CHLORIDE Not Active

// same read-out, input: TRANSPLATIN Not Active

// same read-out, input: COLISTIN Not Active

###

Assay: DRUGMATRIX: Leukotriene, BLT (LTB4) radioligand binding (ligand: [3H]LTB4)
Format: cell membranes, Membrane
Details: u-937; Not Active = under 50% inhibition at 10 µM
Parameter: Ki

Use the examples below as a reference point.
# get_value(readout='Ki', item= C[C@]12CC[C@@H]3c4ccc(O)cc4CC[C@H]3[C@@H]1C[C@@H](O)[C@@H]2O ) Not Active

// same read-out, input: COc1ccc2c(c1OC)C(=O)O[C@@H]2[C@H]1c2c(cc3c(c2OC)OCO3)CCN1C Not Active

// same read-out, input: COc1cc(OC)c(C(=O)CCCN2CCCC2)c(OC)c1 Not Active

// same read-out, input: O=C(O)c1ccccc1O Not Active

// same read-out, input: COC(=O)[C@H]1[C@H]2C[C@@H]3c4[nH]c5cc(OC)ccc5c4CCN3C[C@H]2C[C@@H](OC(=O)c2cc(OC)c(OC)c(OC)c2)[C@@H]1OC Not Active

// same read-out, input: NC(=O)c1cccnc1 [NIACINAMIDE] Not Active

Consider the additional compound presented here.
# get_value(readout='Ki', item= CC[C@]1(O)C[C@@H]2CN(CCc3c([nH]c4ccccc34)[C@@](C(=O)OC)(c3cc4c(cc3OC)N(C)[C@H]3[C@@](O)(C(N)=O)[C@H](O)[C@]5(CC)C=CCN6CC[C@]43[C@@H]65)C2)C1 ) Not Active

###

Biological target: Estrogen receptor (Homo sapiens)
Sequence (P03372 whole entry): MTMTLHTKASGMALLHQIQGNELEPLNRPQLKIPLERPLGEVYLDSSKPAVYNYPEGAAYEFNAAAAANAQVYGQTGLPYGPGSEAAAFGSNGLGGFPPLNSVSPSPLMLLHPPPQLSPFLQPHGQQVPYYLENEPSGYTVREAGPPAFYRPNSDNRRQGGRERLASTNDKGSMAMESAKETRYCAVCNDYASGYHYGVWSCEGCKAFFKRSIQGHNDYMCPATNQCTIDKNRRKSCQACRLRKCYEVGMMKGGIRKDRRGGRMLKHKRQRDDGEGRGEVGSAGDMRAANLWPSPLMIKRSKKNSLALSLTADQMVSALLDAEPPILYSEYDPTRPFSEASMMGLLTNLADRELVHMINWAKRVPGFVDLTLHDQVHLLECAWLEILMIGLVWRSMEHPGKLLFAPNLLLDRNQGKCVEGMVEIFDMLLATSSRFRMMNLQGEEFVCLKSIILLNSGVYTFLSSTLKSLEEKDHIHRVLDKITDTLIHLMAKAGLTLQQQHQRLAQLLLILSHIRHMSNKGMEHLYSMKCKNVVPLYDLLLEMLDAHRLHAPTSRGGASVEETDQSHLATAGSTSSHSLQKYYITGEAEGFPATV
Details: sf9
Parameter: IC50

# get_value(readout='IC50', item= N[C@@H](Cn1ccc(=O)c(O)c1)C(=O)O ) Not Active

// same read-out, input: O=C(O)CC(O)(CC(=O)O)C(=O)O Not Active

// same read-out, input: CN1[C@@H]2CC[C@H]1C[C@@H](OC(c1ccccc1)c1ccccc1)C2 Not Active

// same read-out, input: CN(C)CCC=C1c2ccccc2CCc2ccccc21 Not Active

Next:
# get_value(readout='IC50', item= O=C(O)c1ccccc1O ) Not Active

// same read-out, input: CC[C@]1(O)C[C@@H]2CN(CCc3c([nH]c4ccccc34)[C@@](C(=O)OC)(c3cc4c(cc3OC)N(C)[C@H]3[C@@](O)(C(N)=O)[C@H](O)[C@]5(CC)C=CCN6CC[C@]43[C@@H]65)C2)C1 Not Active

// same read-out, input: CC[C@H]1[C@@H]2C[C@H]3[C@@H]4N(C)c5ccccc5[C@]45C[C@@H]([C@@H]2[C@H]5O)N3[C@@H]1O Not Active

// same read-out, input: NNCCc1ccccc1 Not Active

###

Experiment: DRUGMATRIX: Glutamate, Kainate radioligand binding (ligand: [3H] Kainic acid)
Type: cell membranes, Rattus norvegicus, Wistar, Brain, Membrane
Conditions: Not Active = under 50% inhibition at 10 µM
Parameter: Ki

# get_value(readout='Ki', item= Cc1ccc(C(=O)c2ccc(CC(=O)O)n2C)cc1 ) Not Active

// same read-out, input: C[C@H]1O[C@H](O[C@H]2[C@H](O)[C@@H](O)[C@@H](O[C@H]3[C@H](O)[C@@H](O)C(O)O[C@@H]3CO)O[C@@H]2CO)[C@H](O)[C@@H](O)[C@@H]1N[C@H]1C=C(CO)[C@@H](O)[C@H](O)[C@H]1O (stereo partly drawn) Not Active

// same read-out, input: CNC1=Nc2ccc(Cl)cc2C(c2ccccc2)=[N+]([O-])C1 [CHLORDIAZEPOXIDE] Not Active

###

Target: Alpha-1A adrenergic receptor (Rattus norvegicus, UniProt P43140)
Sequence (P43140 whole entry): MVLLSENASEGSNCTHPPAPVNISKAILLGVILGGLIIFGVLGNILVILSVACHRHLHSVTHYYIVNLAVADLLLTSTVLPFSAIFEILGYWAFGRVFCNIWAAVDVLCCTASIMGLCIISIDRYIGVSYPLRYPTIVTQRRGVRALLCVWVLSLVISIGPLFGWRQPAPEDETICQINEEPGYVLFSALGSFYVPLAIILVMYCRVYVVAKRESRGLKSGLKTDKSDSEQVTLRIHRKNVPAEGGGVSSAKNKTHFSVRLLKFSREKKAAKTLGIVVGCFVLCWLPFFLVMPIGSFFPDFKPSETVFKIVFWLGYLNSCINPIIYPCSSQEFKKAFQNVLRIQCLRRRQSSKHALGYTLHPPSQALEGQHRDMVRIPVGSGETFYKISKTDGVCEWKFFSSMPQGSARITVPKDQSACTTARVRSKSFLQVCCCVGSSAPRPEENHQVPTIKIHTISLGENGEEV
Assay: DRUGMATRIX: Alpha-1A adrenergic receptor radioligand binding (ligand: prazosin)
Assay type: cell membranes, Wistar, Submaxillary gland, Membrane
Conditions: Not Active = under 50% inhibition at 10 µM; read-out: Ki
pKi: −log10 of the molar value.
Lab note: compare pKi against 7. Equal or greater, write yes. Smaller, write no.

API: above_or_equal(metric=pKi, cutoff=7) for item CC(C)C[C@H]1C(=O)N2CCC[C@H]2[C@]2(O)O[C@](NC(=O)[C@@H]3C=C4c5cccc6[nH]cc(c56)C[C@H]4N(C)C3)(C(C)C)C(=O)N12 yes

// same read-out, input: CN1CCCC(CN2c3ccccc3Sc3ccccc32)C1 (stereo unspecified) yes

// same read-out, input: CN1[C@@H]2CC[C@H]1C[C@@H](OC(c1ccccc1)c1ccccc1)C2 yes

// same read-out, input: CN(C)CCC=C1c2ccccc2CCc2ccccc21 yes

// same read-out, input: CN(C)C(=O)C(CCN1CCC(O)(c2ccc(Cl)cc2)CC1)(c1ccccc1)c1ccccc1 [LOPERAMIDE] no

// same read-out, input: N=C(N)c1ccc(OCCCCCOc2ccc(C(=N)N)cc2)cc1 no

###

Target: Mitogen-activated protein kinase 14 (Homo sapiens, UniProt Q16539); note: in other assays of this panel Not Active means under 50% inhibition at 10 µM;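 note: inhibition of p38alpha enzyme activity in a biochemical kinase assay, with myelin basic protein serving as substrate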
Sequence (Q16539 whole entry): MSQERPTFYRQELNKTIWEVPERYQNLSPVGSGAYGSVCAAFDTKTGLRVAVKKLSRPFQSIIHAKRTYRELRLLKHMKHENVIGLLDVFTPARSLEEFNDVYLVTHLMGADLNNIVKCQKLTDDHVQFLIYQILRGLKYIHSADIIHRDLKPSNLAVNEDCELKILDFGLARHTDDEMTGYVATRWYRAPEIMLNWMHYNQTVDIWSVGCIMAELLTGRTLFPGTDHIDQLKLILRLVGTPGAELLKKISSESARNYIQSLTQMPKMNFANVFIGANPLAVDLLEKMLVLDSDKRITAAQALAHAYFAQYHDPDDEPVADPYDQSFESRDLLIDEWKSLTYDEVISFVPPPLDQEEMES
Design: species or system Escherichia coli
Settings: read-out: IC50
Parameter: IC50 (µM)
# unit: µM | format: bare number

# get_value(readout='IC50', item= O=C(c1ccccc1F)N1CCC(Cc2ccccc2)CC1 ) 0.537

// same read-out, input: Cc1c(O)cccc1C(=O)N[C@@H](CSc1ccccc1)[C@H](O)CN1C[C@H]2CCCC[C@H]2C[C@H]1C(=O)NC(C)(C)C 18.2

###

Target: Glycine receptor (Rattus norvegicus, UniProt P22771+P24524+P07727+P20781); note: in other assays of this panel Not Active means under 50% inhibition at 10 µM
Format: cell membranes, Wistar, Spinal cord, Membrane
Parameter: IC50

Use the examples below as a reference point.
# get_value(readout='IC50', item= CCC1=C(C)CN(C(=O)NCCc2ccc(S(=O)(=O)NC(=O)N[C@H]3CC[C@H](C)CC3)cc2)C1=O [GLIMEPIRIDE] ) Not Active

// same read-out, input: C[C@H]1O[C@H](O[C@H]2[C@H](O)[C@@H](O)[C@@H](O[C@H]3[C@H](O)[C@@H](O)C(O)O[C@@H]3CO)O[C@@H]2CO)[C@H](O)[C@@H](O)[C@@H]1N[C@H]1C=C(CO)[C@@H](O)[C@H](O)[C@H]1O (stereo partly specified) [ACARBOSE] Not Active

// same read-out, input: CC(C)(C)NCC(O)COc1cccc2c1CC(O)C(O)C2 (stereo unspecified) [NADOLOL] Not Active

// same read-out, input: COc1ccnc(C[S+]([O-])c2nc3ccc(OC(F)F)cc3[nH]2)c1OC (stereo unspecified) [PANTOPRAZOLE] Not Active

// same read-out, input: C[C@]12C=CC(=O)C=C1CC[C@@H]1[C@@H]2C(=O)C[C@@]2(C)[C@H]1CC[C@]2(O)C(=O)CO [PREDNISONE] Not Active

// same read-out, input: CN1CCCC(CN2c3ccccc3Sc3ccccc32)C1 (stereo unspecified) [MEPAZINE] Not Active

// same read-out, input: CCCNC(=O)NS(=O)(=O)c1ccc(Cl)cc1 [CHLORPROPAMIDE] Not Active

// same read-out, input: NCCCNCCSP(=O)(O)O [AMIFOSTINE] Not Active

Next:
# get_value(readout='IC50', item= CC(C)(C(=O)O)c1ccc(C(O)CCCN2CCC(C(O)(c3ccccc3)c3ccccc3)CC2)cc1 (stereo unspecified) [FEXOFENADINE] ) Not Active

// same read-out, input: Cc1c(O)cccc1C(=O)N[C@@H](CSc1ccccc1)[C@H](O)CN1C[C@H]2CCCC[C@H]2C[C@H]1C(=O)NC(C)(C)C Not Active

// same read-out, input: CN1CCC(=C2c3ccccc3CC(=O)c3sccc32)CC1 [KETOTIFEN] Not Active

// same read-out, input: C[N+](C)(C)C[C@H](O)CC(=O)[O-] [LEVOCARNITINE] Not Active

// same read-out, input: CNC1=Nc2ccc(Cl)cc2C(c2ccccc2)=[N+]([O-])C1 [CHLORDIAZEPOXIDE] Not Active

// same read-out, input: O=C(O)c1cc(-c2ccc(F)cc2F)ccc1O [DIFLUNISAL] Not Active

// same read-out, input: COc1cccc2c1C(=O)c1c(O)c3c(c(O)c1C2=O)C[C@@](O)(C(C)=O)C[C@@H]3O[C@H]1C[C@H](N)[C@H](O)[C@H](C)O1 [DAUNORUBICIN] Not Active

// same read-out, input: CCCCC1=NC2(CCCC2)C(=O)N1Cc1ccc(-c2ccccc2-c2nnn[nH]2)cc1 [IRBESARTAN] Not Active
